Record set of GI50 for target or system CAKI-1.
Answers are plain numbers, in nM.

Known GI50 results, listed for orientation:
# COMPOUND, DISPLAY UNIT, ENDPOINT VALUE
rows = [
    ("C=C1CCC2C3(C)COC(c4cn(-c5ccccc5)nc4-c4cccc([N+](=O)[O-])c4)OC3CCC2(C)C1CC=C1C(=O)OCC1O (stereo not drawn) [1b]", "nM", 2810),
    ("C=C1CCC2C3(C)COC(c4cn(-c5ccccc5)nc4-c4ccc(C)cc4)OC3CCC2(C)C1CC=C1C(=O)OCC1O (stereo not drawn) [1i]", "nM", 1710),
]

Please turn your attention to the following entry.
Form: item C=C1CCC2C3(C)COC(c4cn(-c5ccccc5)nc4-c4ccc(Cl)cc4)OC3CCC2(C)C1CC=C1C(=O)OCC1O (stereo not drawn) [1g] ; test system CAKI-1; GI50: 1630

---

The following molecules have recorded GI50 on SR.
Give bare numbers, in nM.

Answered cases to consult:
# MOLECULE, DISPLAY UNIT, GI50
data = [
    ("C=C1CCC2C3(C)COC(c4cn(-c5ccccc5)nc4-c4cccc(Cl)c4)OC3CCC2(C)C1CC=C1C(=O)OCC1O (stereo not drawn)", "nM", 1290),
    ("C=C1CCC2C3(C)COC(c4cn(-c5ccccc5)nc4-c4ccc(Cl)cc4)OC3CCC2(C)C1CC=C1C(=O)OCC1O (stereo not drawn)", "nM", 2530),
]

Let us move to another entry and its GI50.
GI50 value, target or system SR, for C=C1CCC2C3(C)COC(c4cn(-c5ccccc5)nc4-c4ccc(Br)cc4)OC3CCC2(C)C1CC=C1C(=O)OCC1O (stereo not drawn) : 1690

---

- System: MDA-MB-231
- TEST SETTINGS: MDA-MB-231/ATCC, Breast
MEASUREMENT LABEL: Total growth inhibition (TGI) (µM)
Give bare numbers, in µM.

# COMPOUND, SYSTEM NAME, ENDPOINT VALUE
data = [
    ("C=C1CCC2C3(C)COC(c4cn(-c5ccccc5)nc4-c4cccc(Cl)c4)OC3CCC2(C)C1CC=C1C(=O)OCC1O (stereo not drawn) [1d]", "MDA-MB-231", 2.99),
    ("C=C1CCC2C3(C)COC(c4cn(-c5ccccc5)nc4-c4ccc(OC)cc4)OC3CCC2(C)C1CC=C1C(=O)OCC1O (stereo not drawn) [1j]", "MDA-MB-231", 2.98),
]

Field: next compound
// recorded Total growth inhibition (TGI) for C=C1CCC2C3(C)COC(c4cn(-c5ccccc5)nc4-c4cccc(F)c4)OC3CCC2(C)C1CC=C1C(=O)OCC1O (stereo not drawn) [1c] : 3.29

---

- Tested on: HOP-92
- TEST SETTINGS: read-out: 50% lethal concentration (LC50); HOP-92, Non-Small Cell Lung
Consider the following compounds; for each one, report its CC50.
Answers are plain numbers, in µM.

# COMPOUND, MEASUREMENT LABEL, ENDPOINT VALUE
measured = [
    ("C=C1CCC2C3(C)COC(c4cn(-c5ccccc5)nc4-c4ccc(Cl)cc4)OC3CCC2(C)C1CC=C1C(=O)OCC1O (stereo not drawn) [1g]", "CC50", 6.32),
]

Give measured CC50 for every item shown.
1. C=C1CCC2C3(C)COC(c4cn(-c5ccccc5)nc4-c4cccc(Cl)c4)OC3CCC2(C)C1CC=C1C(=O)OCC1O (stereo not drawn) [1d]
2. C=C1CCC2C3(C)COC(c4cn(-c5ccccc5)nc4-c4ccc(F)cc4)OC3CCC2(C)C1CC=C1C(=O)OCC1O (stereo not drawn) [1f]
3. C=C1CCC2C3(C)COC(c4cn(-c5ccccc5)nc4-c4ccc(Br)cc4)OC3CCC2(C)C1CC=C1C(=O)OCC1O (stereo not drawn) [1h]
4. C=C1CCC2C3(C)COC(c4cn(-c5ccccc5)nc4-c4ccc(OC)cc4)OC3CCC2(C)C1CC=C1C(=O)OCC1O (stereo not drawn) [1j]
5. C=C1CCC2C3(C)COC(c4cn(-c5ccccc5)nc4-c4ccc(C)cc4)OC3CCC2(C)C1CC=C1C(=O)OCC1O (stereo not drawn) [1i]

Marked response:
1. 6.2
2. 5.78
3. 6.2
4. 6.2
5. 6.88

Give CC50 for each listed item.
1. C=C1CCC2C3(C)COC(c4cn(-c5ccccc5)nc4-c4ccccc4)OC3CCC2(C)C1CC=C1C(=O)OCC1O (stereo not drawn) [1a]
2. C=C1CCC2C3(C)COC(c4cn(-c5ccccc5)nc4-c4cccc(F)c4)OC3CCC2(C)C1CC=C1C(=O)OCC1O (stereo not drawn) [1c]
3. C=C1CCC2C3(C)COC(c4cn(-c5ccccc5)nc4-c4cccc([N+](=O)[O-])c4)OC3CCC2(C)C1CC=C1C(=O)OCC1O (stereo not drawn) [1b]

Marked response:
1. 5.83
2. 6.02
3. 7.11

---

- Test system: SR
- TEST SETTINGS: read-out: 50% lethal concentration (LC50), Leukemia
MEASUREMENT LABEL: CC50

# MOLECULE, CC50
records = [
    ("C=C1CCC2C3(C)COC(c4cn(-c5ccccc5)nc4-c4cccc(Br)c4)OC3CCC2(C)C1CC=C1C(=O)OCC1O (stereo not shown)", "> 100 µM"),
    ("C=C1CCC2C3(C)COC(c4cn(-c5ccccc5)nc4-c4ccccc4)OC3CCC2(C)C1CC=C1C(=O)OCC1O (stereo not shown)", "> 100 µM"),
    ("C=C1CCC2C3(C)COC(c4cn(-c5ccccc5)nc4-c4cccc(F)c4)OC3CCC2(C)C1CC=C1C(=O)OCC1O (stereo not shown)", "> 100 µM"),
    ("C=C1CCC2C3(C)COC(c4cn(-c5ccccc5)nc4-c4ccc(OC)cc4)OC3CCC2(C)C1CC=C1C(=O)OCC1O (stereo not shown)", "> 100 µM"),
    ("C=C1CCC2C3(C)COC(c4cn(-c5ccccc5)nc4-c4cccc(Cl)c4)OC3CCC2(C)C1CC=C1C(=O)OCC1O (stereo not shown)", "> 100 µM"),
]

# map each molecule to its CC50
1. C=C1CCC2C3(C)COC(c4cn(-c5ccccc5)nc4-c4ccc(C)cc4)OC3CCC2(C)C1CC=C1C(=O)OCC1O (stereo not shown)
2. C=C1CCC2C3(C)COC(c4cn(-c5ccccc5)nc4-c4ccc(Br)cc4)OC3CCC2(C)C1CC=C1C(=O)OCC1O (stereo not shown)
3. C=C1CCC2C3(C)COC(c4cn(-c5ccccc5)nc4-c4ccc(F)cc4)OC3CCC2(C)C1CC=C1C(=O)OCC1O (stereo not shown)
4. C=C1CCC2C3(C)COC(c4cn(-c5ccccc5)nc4-c4ccc(Cl)cc4)OC3CCC2(C)C1CC=C1C(=O)OCC1O (stereo not shown)
5. C=C1CCC2C3(C)COC(c4cn(-c5ccccc5)nc4-c4cccc([N+](=O)[O-])c4)OC3CCC2(C)C1CC=C1C(=O)OCC1O (stereo not shown)

Marked response:
1. > 100 µM
2. > 100 µM
3. > 100 µM
4. > 100 µM
5. > 100 µM

---

- Test system: SNB-75
- TEST SETTINGS: SNB-75, CNS
MEASUREMENT LABEL: Total growth inhibition (TGI) (µM)
Give bare numbers, in µM.

Answered examples (4):
# COMPOUND, Total growth inhibition (TGI) (µM)
measured = [
    ("C=C1CCC2C3(C)COC(c4cn(-c5ccccc5)nc4-c4ccccc4)OC3CCC2(C)C1CC=C1C(=O)OCC1O (stereo not drawn)", 3.9),
    ("C=C1CCC2C3(C)COC(c4cn(-c5ccccc5)nc4-c4cccc(Br)c4)OC3CCC2(C)C1CC=C1C(=O)OCC1O (stereo not drawn)", 5.32),
    ("C=C1CCC2C3(C)COC(c4cn(-c5ccccc5)nc4-c4ccc(F)cc4)OC3CCC2(C)C1CC=C1C(=O)OCC1O (stereo not drawn)", 3.09),
    ("C=C1CCC2C3(C)COC(c4cn(-c5ccccc5)nc4-c4cccc(Cl)c4)OC3CCC2(C)C1CC=C1C(=O)OCC1O (stereo not drawn)", 3.14),
]

Value sought for every listed compound: Total growth inhibition (TGI).
1. C=C1CCC2C3(C)COC(c4cn(-c5ccccc5)nc4-c4cccc(F)c4)OC3CCC2(C)C1CC=C1C(=O)OCC1O (stereo not drawn)
2. C=C1CCC2C3(C)COC(c4cn(-c5ccccc5)nc4-c4ccc(Cl)cc4)OC3CCC2(C)C1CC=C1C(=O)OCC1O (stereo not drawn)

Marked response:
3.55
2.87

---

- Test system: MDA-MB-468
- TEST SETTINGS: MDA-MB-468, Breast
MEASUREMENT LABEL: Total growth inhibition (TGI) (µM)
Numbers only, in µM.

Observe how each entry below is paired with its result.
# COMPOUND, DISPLAY UNIT, ENDPOINT VALUE
rows = [
    ("C=C1CCC2C3(C)COC(c4cn(-c5ccccc5)nc4-c4ccc(F)cc4)OC3CCC2(C)C1CC=C1C(=O)OCC1O (stereo not drawn) [1f]", "µM", 2.96),
    ("C=C1CCC2C3(C)COC(c4cn(-c5ccccc5)nc4-c4ccc(OC)cc4)OC3CCC2(C)C1CC=C1C(=O)OCC1O (stereo not drawn) [1j]", "µM", 3.25),
]

Then this compound:
get_value(item= C=C1CCC2C3(C)COC(c4cn(-c5ccccc5)nc4-c4cccc([N+](=O)[O-])c4)OC3CCC2(C)C1CC=C1C(=O)OCC1O (stereo not drawn) [1b] , readout=Total growth inhibition (TGI)) returns 3.52
